Test system: Urochloa mutica
Experiment: Drug level in […] (buffalo grass) measured per gram of fresh weight at 19.1 kg/ha measured 28 days after treatment
Type: ADME, organism-based
Conditions: in vivo, 672 h
Measured attribute: drug content (µg/g)
Record the value in µg/g, omitting the unit from your answer.

// lookup drug content for CN/C(=N\[N+](=O)[O-])NCc1cnc(Cl)s1 [CLOTHIANIDINE]
0.19

====

Test system: Urochloa mutica
Assay: Drug level in […] (buffalo grass) measured per gram of fresh weight at 89.7 kg/ha measured 3 days after treatment
Assay type: ADME, organism-based
Settings: in vivo, 72 h
Measured attribute: drug content (µg/g)
Record the value in µg/g, omitting the unit from your answer.

// lookup drug content for O=[N+]([O-])NC1=NCCN1Cc1ccc(Cl)nc1
14.2

====

Test system: Urochloa mutica
Experiment: Drug level in […] (buffalo grass) measured per gram of fresh weight at 19.1 kg/ha measured 14 days after treatment
Format: ADME, organism-based
Conditions: in vivo, 336 h
Measured attribute: drug content (µg/g)
Record the value in µg/g, omitting the unit from your answer.

// lookup drug content for CN/C(=N\[N+](=O)[O-])NCc1cnc(Cl)s1 [CLOTHIANIDINE]
0.66

====

Test system: Urochloa mutica
Test: Drug level in […] (buffalo grass) measured per gram of fresh weight at 9.6 kg/ha measured 7 days after treatment
Format: ADME, organism-based
Details: in vivo, other, 168 h
Measured attribute: drug content (µg/g)
Record the value in µg/g, omitting the unit from your answer.

// lookup drug content for CN1COCN(Cc2cnc(Cl)s2)/C1=N\[N+](=O)[O-]
0.6

====

System: Urochloa mutica
Assay: Drug level in […] (buffalo grass) measured per gram of fresh weight at 9.6 kg/ha measured 14 days after treatment
Format: ADME, organism-based
Conditions: in vivo, 336 h
Measured attribute: drug content (µg/g)
Record the value in µg/g, omitting the unit from your answer.

// lookup drug content for CN1COCN(Cc2cnc(Cl)s2)/C1=N\[N+](=O)[O-]
0.16
